# key: entry, value: MFI at 0.6 nM mAb
Assayed Target: T1, Human CD33 full length, expressed on HEK293F cells (human, UniProt P20138 18-364)
T1 construct: HEK293F cells transduced with lentivirus containing full length human CD33; also called huCD33
T1 sequence (P20138 18-364 limits assumed): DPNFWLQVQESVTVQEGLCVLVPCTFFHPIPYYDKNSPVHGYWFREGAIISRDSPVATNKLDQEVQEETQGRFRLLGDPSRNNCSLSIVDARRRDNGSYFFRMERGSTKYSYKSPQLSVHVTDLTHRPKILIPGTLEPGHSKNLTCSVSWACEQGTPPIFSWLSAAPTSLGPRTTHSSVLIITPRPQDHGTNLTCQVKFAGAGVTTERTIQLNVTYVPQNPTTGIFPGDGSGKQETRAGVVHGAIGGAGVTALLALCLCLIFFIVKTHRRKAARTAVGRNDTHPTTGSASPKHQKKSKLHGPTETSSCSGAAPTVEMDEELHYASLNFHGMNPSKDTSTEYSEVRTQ
Procedure Summary: flow cytometry, HEK293F cells expressing human CD33
Description: OMNIRat antibodies identified via immunization, v-region cloned and subsequently expressed and purified were characterized further for binding to CD33 expressing cells and binding to recombinant antigens. The purified antibodies were assessed for binding to stably transfected HEK293F cells expressing human CD33 or cyno CD33 (generation described above) along with the parental HEK293F as negative control. […] Antibody binding was assessed by the mean fluorescence intensity in the AF647 channel.

Binder: C33B66 (antibody, IgG1, V domains shown, huIgG1 F405L; also called C33F71; C33H55/C33L42) VH: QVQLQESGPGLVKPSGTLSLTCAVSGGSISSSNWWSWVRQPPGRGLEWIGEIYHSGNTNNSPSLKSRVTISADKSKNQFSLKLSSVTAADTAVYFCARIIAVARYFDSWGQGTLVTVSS VL: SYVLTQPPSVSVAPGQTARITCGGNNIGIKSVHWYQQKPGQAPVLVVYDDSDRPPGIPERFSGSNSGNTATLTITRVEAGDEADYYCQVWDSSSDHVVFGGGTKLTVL
MFI at 0.6 nM mAb [MFI]: 56600

Binder: C33B73 (antibody, IgG1, V domains shown, huIgG1 F405L; also called C33F78; C33H66/C33L60) VH: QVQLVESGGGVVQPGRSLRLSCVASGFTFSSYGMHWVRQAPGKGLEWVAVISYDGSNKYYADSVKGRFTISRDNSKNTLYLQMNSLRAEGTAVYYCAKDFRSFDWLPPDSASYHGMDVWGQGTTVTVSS VL: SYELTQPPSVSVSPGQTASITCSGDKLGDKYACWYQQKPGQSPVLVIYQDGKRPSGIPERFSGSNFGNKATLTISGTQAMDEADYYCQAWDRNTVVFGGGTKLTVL
MFI at 0.6 nM mAb [MFI]: 4030

Binder: C33B80 (antibody, IgG1, V domains shown, huIgG1 F405L; also called C33F85; C33H76/C33L39) VH: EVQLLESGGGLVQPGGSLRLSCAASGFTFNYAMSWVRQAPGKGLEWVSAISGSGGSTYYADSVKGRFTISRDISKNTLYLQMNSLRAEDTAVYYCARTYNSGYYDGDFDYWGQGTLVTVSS VL: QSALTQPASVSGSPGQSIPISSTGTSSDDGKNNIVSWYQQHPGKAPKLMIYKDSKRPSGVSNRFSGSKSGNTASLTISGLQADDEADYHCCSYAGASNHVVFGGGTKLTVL
MFI at 0.6 nM mAb [MFI]: 115

Binder: C33B101 (antibody, V domains shown, huIgG1 F405L; 260 is used; also called C33F106; C33H69/C4LL152) VH: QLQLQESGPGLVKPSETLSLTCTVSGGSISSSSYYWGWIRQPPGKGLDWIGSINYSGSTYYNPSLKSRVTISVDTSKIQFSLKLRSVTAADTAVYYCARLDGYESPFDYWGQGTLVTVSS VL: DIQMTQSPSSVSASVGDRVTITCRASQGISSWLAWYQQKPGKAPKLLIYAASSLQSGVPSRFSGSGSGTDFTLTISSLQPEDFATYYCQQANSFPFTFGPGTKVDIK
MFI at 0.6 nM mAb [MFI]: 35500

Binder: C33B54 (antibody, IgG1, V domains shown, huIgG1 F405L; also called C33F59; C33H44/C33L10) VH: QVQLQQSGPGLVKPSQTLSLTCAISGDSVSSNSAAWNWIRQSPSRGLEWLGRTYYRSKWYNDYAVSVRSRITINPDTSKNQFSLQLNSVTPEDTAVYHCARETMFRGLMDYWGQGTLVTVSS VL: SYVLTQPPSVSVAPGQTARITCGGSNIGSKSVHWYQQKPGQAPVMVVYDDSDRPSGIPERFSGSNSGNTATLTISRVEAGDEADYYCQVWDSSSDVVFGGGTKLTVL
MFI at 0.6 nM mAb [MFI]: 3770

Binder: C33B63 (antibody, IgG1, V domains shown, huIgG1 F405L; also called C33F68; C33H51/C33L34) VH: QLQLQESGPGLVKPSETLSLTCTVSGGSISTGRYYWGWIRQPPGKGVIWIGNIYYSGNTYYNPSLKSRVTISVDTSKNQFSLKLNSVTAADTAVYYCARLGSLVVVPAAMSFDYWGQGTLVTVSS VL: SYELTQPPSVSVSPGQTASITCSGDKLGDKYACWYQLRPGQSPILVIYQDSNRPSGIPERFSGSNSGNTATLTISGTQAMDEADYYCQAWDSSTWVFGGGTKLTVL
MFI at 0.6 nM mAb [MFI]: 9670

Binder: C33B48 (antibody, IgG1, V domains shown, huIgG1 F405L; also called C33F53; C33H80/C33L73) VH: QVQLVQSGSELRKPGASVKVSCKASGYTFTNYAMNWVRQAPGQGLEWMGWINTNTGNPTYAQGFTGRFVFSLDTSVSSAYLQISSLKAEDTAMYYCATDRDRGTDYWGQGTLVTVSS VL: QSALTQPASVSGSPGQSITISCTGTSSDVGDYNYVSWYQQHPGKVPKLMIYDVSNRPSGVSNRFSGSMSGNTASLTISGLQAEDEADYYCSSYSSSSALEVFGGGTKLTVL
MFI at 0.6 nM mAb [MFI]: 391000

Binder: C33B46 (antibody, IgG1, V domains shown, huIgG1 F405L; also called C33F51; C33H108/C33L74) VH: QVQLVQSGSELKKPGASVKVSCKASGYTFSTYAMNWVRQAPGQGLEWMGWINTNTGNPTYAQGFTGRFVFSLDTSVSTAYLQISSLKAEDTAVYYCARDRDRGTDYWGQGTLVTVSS VL: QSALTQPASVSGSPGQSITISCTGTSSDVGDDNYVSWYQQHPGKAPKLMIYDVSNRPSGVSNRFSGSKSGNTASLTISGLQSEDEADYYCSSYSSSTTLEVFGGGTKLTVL
MFI at 0.6 nM mAb [MFI]: 418000

Binder: C33B52 (antibody, IgG1, V domains shown, huIgG1 F405L; also called C33F57; C33H42/C33L8) VH: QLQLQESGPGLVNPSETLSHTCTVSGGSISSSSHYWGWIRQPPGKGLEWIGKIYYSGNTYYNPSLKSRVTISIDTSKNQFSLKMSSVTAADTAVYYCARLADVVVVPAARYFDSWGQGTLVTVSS VL: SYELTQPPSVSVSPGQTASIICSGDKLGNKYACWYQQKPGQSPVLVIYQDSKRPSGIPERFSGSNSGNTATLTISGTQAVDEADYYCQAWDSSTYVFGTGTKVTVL
MFI at 0.6 nM mAb [MFI]: 6750

Binder: C33B88 (antibody, IgG1, V domains shown, huIgG1 F405L; also called C33F93; C33H88/C33L61) VH: QVQLVQSGSELKKPGASVKVSCKASGYTLTRSAMNWVRQAPGQGLEWMGWINTNTGNPTYAQGFTGRFVFSLDTSVNTAYLLISSLKTEDTAVYYCASDILPGYHEDYWGQGTLVTVSS VL: QSALTQPASVSGSPGQSITISCTGINSDVGSYDLVSWYQQHPGKAPKLLIYDGSERPSGVFGRFSGSKSDNTTSLTISGLQAEDEAAYYCCSYEVTTTYVVFGGGTKLTVL
MFI at 0.6 nM mAb [MFI]: 274000
